Each entry below carries its reported growth inhibition.
Test: inhibition of 3D7 malaria parasite growth – strain 3D7 (AID 2306);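 also: 0% = DMSO wells and 100% = chloroquine plus artemisinin control wells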
Conditions: P. falciparum 3D7 erythrocytic growth, LDH absorbance, 72 h; at 2 µM; stronger effect = higher value
Please respond with the number in % and leave the unit unwritten.

>  <compound>
Cc1cc(O)c(CN(C)Cc2ccc3c(c2)OCCO3)cc1C(C)C

>  <growth inhibition (%)>
98

$$$$
>  <compound>
CCN(CC)CCNc1ccnc2[nH]c3ccc(C)cc3c12

>  <growth inhibition (%)>
102

$$$$
>  <compound>
O=C(c1ccc(-c2ccc(-c3nc4ccc(F)cc4[nH]3)cc2)cc1)N1CCCCC1CN1CCC(O)C1 (stereo not given)

>  <growth inhibition (%)>
90

$$$$
>  <compound>
COc1ccc(-c2cnc3[nH]cc(-c4ccc(C(=O)O)cc4)c3c2)cn1

>  <growth inhibition (%)>
95

$$$$

Proceeding to the next compound to report its growth inhibition.
Ask: Which growth inhibition value belongs to `COc1ccc(-c2cccc(NC(=O)c3cccc(Cl)c3)c2)cc1CN1CCCN(C)CC1` ?
Result: 101

---

Assay: antimalarial activity against Dd2 strain (AID 2302);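 also: 0% = DMSO untreated growth and 100% = chloroquine plus artemisinin killed control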
Conditions: P. falciparum Dd2 in RBCs, LDH growth readout, 72 h; at 2 µM; stronger effect = higher value
measured.attribute: growth inhibition (%)
Please respond with the number in % and leave the unit unwritten.

>  <smiles.data>
COc1cc(F)c2nccc([C@@H](O)CN3CC[C@@H](NC(=O)OCc4ccccc4)[C@@H](F)C3)c2c1

>  <growth inhibition / %>
100

$$$$

Ask: Which growth inhibition value belongs to `Cc1ccc(C2CCN(CCCCNC(=O)c3ccc(-c4ccc(C(F)(F)F)cc4)cc3)CC2)c(O)c1` ?
Result: 49

---

Biological target: Calcium-dependent protein kinase 4 (Plasmodium falciparum (isolate 3D7)) (UniProt Q8IBS5)
Sequence (Q8IBS5 whole entry, looked up): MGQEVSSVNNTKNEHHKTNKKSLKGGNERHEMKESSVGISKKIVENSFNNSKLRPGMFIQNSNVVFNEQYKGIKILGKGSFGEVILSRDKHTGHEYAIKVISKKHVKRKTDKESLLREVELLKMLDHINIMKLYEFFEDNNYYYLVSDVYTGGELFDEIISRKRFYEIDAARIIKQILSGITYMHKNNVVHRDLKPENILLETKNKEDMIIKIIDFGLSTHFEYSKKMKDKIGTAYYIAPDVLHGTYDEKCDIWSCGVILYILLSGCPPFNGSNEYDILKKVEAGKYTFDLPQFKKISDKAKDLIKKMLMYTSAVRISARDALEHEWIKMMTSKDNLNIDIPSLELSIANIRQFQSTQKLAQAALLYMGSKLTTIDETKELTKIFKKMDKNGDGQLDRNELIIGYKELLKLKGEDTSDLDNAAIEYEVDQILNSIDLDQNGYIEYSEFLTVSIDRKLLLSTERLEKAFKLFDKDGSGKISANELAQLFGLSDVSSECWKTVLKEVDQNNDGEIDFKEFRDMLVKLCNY
Test: PfCDPK4 kinase inhibitors, biochemical, TCAMS library (AID 1159588)
Settings: recombinant PfCDPK4, Kinase-Glo ATP depletion luminescence
Potency and affinity values are given separately. Activity calls are given as the source filed them. No cut-off is given here; in the data, nearly all actives have IC50 up to about 0.91 µM.
measured.attribute: outcome

>  <smiles.data>
CC=CC(=O)N1CCN(c2nccc(-c3ccc(C(C)(C)C)cc3)n2)CC1

>  <measured.attribute>
outcome

>  <measured>
inactive

$$$$
>  <smiles.data>
Clc1ccc2c(NCCc3ccccn3)ccnc2c1

>  <measured.attribute>
outcome

>  <measured>
inactive

$$$$
>  <smiles.data>
CCOC(=O)C(Oc1ccc2ccccc2c1)C(=O)OCC

>  <measured.attribute>
outcome

>  <measured>
inactive

$$$$
>  <smiles.data>
COc1ccc2nccc([C@@H](O)CN3CCC(NCc4cc5sccc5nc4C(F)(F)F)CC3)c2c1

>  <measured.attribute>
outcome

>  <measured>
inactive

$$$$
>  <smiles.data>
COc1ccc(-n2nc(C)cc2C(=O)NCc2ccc(-c3c(C)noc3C)cc2)cc1

>  <measured.attribute>
outcome

>  <measured>
inactive

$$$$

Ask: Which outcome value belongs to `O=C(Nc1ccc(-c2ccc(CN3CCNCC3)cc2)cc1)c1cccc(Cl)c1` ?
Result: inactive

---

Target: L-lactate dehydrogenase (Plasmodium falciparum (isolate CDC / Honduras)) (UniProt Q27743)
Sequence (Q27743 whole entry, looked up): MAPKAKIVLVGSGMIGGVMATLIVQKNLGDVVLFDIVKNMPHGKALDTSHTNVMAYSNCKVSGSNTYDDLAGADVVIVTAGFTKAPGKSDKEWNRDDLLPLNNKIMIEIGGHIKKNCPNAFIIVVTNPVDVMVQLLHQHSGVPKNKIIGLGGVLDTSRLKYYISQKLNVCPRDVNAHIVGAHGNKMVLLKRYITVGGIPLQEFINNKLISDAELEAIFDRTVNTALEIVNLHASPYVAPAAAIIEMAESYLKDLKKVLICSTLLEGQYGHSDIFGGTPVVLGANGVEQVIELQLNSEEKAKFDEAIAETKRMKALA
Experiment: PfLDH activity inhibition – cell lysate, 3D7 strain, counter-screen for P. falciparum growth inhibition project (AID 2304);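 also: 0% = vehicle and 100% = reference inhibitor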
Details: P. falciparum 3D7 crude extract, LDH APAD/NBT absorbance; at 2 µM; stronger effect = higher value
Each entry below carries its reported inhibition.
Please respond with the number in % and leave the unit unwritten.

>  <compound>
COCc1nc(-c2ccccc2)nc(N2CCN(C(=O)NC(C)C)CC2)c1Cc1ccccc1F

>  <inhibition (%)>
-3

$$$$
>  <compound>
Cc1cc(N2CCN(C3CCCCC3)CC2)nc2cccc(O)c12

>  <inhibition (%)>
-3

$$$$
>  <compound>
O=C(NC1CCN(CCC[C@]2(c3ccc(Cl)c(Cl)c3)CCCN(C(=O)c3ccccc3)C2)CC1)c1ccc(Cl)cc1

>  <inhibition (%)>
-1

$$$$
>  <compound>
CN1CCN(Cc2nc(-c3ccc4c(Nc5ccc(Oc6ccccc6)cc5)ccnc4c3)cs2)CC1

>  <inhibition (%)>
0

$$$$
>  <compound>
COc1ccc(-c2cnc(N)c(-c3ccc(C(N)=O)cc3)c2)cc1OC

>  <inhibition (%)>
4

$$$$

Ask: Lookup: inhibition / L-lactate dehydrogenase (Plasmodium falciparum (isolate CDC / Honduras)) (UniProt Q27743) / `Cc1nc2c(=O)sc3ccccc3c2n1Cc1ccccc1`
Result: 1

Ask: Lookup: inhibition / L-lactate dehydrogenase (Plasmodium falciparum (isolate CDC / Honduras)) (UniProt Q27743) / `CN(C)CCCNc1ncnc2c1[nH]c1ccc(Cl)cc12`
Result: 2

Ask: Lookup: inhibition / L-lactate dehydrogenase (Plasmodium falciparum (isolate CDC / Honduras)) (UniProt Q27743) / `CCOc1c(CNCCCNc2nc3ccccc3[nH]2)cc(I)cc1OC`
Result: 1

Ask: Lookup: inhibition / L-lactate dehydrogenase (Plasmodium falciparum (isolate CDC / Honduras)) (UniProt Q27743) / COc1ccc(NC(=O)NC2CCN(CCCCCNC(=O)/C=C/c3ccc(Cl)c(Cl)c3)C2)c(OC)c1 (stereo not given)
Result: -3

Ask: Lookup: inhibition / L-lactate dehydrogenase (Plasmodium falciparum (isolate CDC / Honduras)) (UniProt Q27743) / `CCn1c(Sc2ccc(C#N)c([N+](=O)[O-])c2)nnc1-c1ccc(Cl)cc1`
Result: 6

---

Experiment: antimalarial activity against Dd2 strain (AID 2302);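 also: 0% = DMSO untreated growth and 100% = chloroquine plus artemisinin killed control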
Details: P. falciparum Dd2 in RBCs, LDH growth readout, 72 h; at 2 µM; stronger effect = higher value
# cutoff 40% applies to growth inhibition; >= gives fulfilled, < gives not fulfilled

Illustrative cases are given below, each with its answer.
>  <molecule>
COc1cc(NC(=O)/C=C/c2ccccc2Cl)cc(OCCN2CCC(O)(c3ccccc3)CC2)c1

>  <group.label>
fulfilled

$$$$
>  <molecule>
COc1cc(/C=C/C(=O)NC2CCC(N3CCC(c4ccccc4C)CC3)CC2)cc(OC)c1 (centres undefined)

>  <group.label>
not fulfilled

$$$$
>  <molecule>
O=C(Cn1c(CCc2cccc(F)c2F)cc(=O)c2cccnc21)N(CCn1ccnc1)Cc1ccc(-c2ccc(C(F)(F)F)cc2)cc1

>  <group.label>
fulfilled

$$$$
>  <molecule>
CCn1c2ccccc2c2cc(Cc3cnc(N)nc3N)ccc21

>  <group.label>
not fulfilled

$$$$
>  <molecule>
CN(C)c1ccc(-c2csc(C(=O)NC3CCN(CCC(C)(C)C)C3)c2)cc1 (centres undefined)

>  <group.label>
not fulfilled

$$$$

Ask: Does the reported growth inhibition for `COc1ccc2ncc(F)c(CCN3CCC4(CC3)COC(c3cc5c(cn3)OCCO5)=N4)c2n1` fall at or above the 40% mark?
Result: fulfilled

Ask: Does the reported growth inhibition for `COc1ccc2c(NN=Cc3cccc([N+](=O)[O-])c3)cc(C)nc2c1` fall at or above the 40% mark?
Result: fulfilled

Ask: Does the reported growth inhibition for `COc1ccc(CNCc2ccc(-c3cccc(-c4nc5ccc(F)cc5[nH]4)c3)cc2)cc1` fall at or above the 40% mark?
Result: fulfilled

Ask: Does the reported growth inhibition for Cc1ccc2[nH]cc(/C=C/C(=O)NC3CCC(CCN4CCc5ccc(C#N)cc5CC4)CC3)c2c1 (centres undefined) fall at or above the 40% mark?
Result: fulfilled

---

Each entry below carries its reported inhibition.
Assay: human hepatoma cell viability loss – ATP luminescence, cytotoxicity control for P. falciparum antimalarial project, primary screen (AID 2303);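 also: 0% = DMSO wells and 100% = digitonin-killed cells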
Settings: HepG2 viability, 24-48 h, at 10 µM, stronger effect = higher value
Please respond with the number in % and leave the unit unwritten.

Answered cases to consult:
>  <compound>
COc1ccc(CCn2c(=N)c(C(=O)NC3CCCC3)cc3c(=O)n4ccccc4nc32)cc1

>  <measured>
11

$$$$
>  <compound>
COc1ccc(CNC(=O)NC2CCN(c3ccnc(Nc4ccc(OC)cc4)n3)C2)cc1 (centres undefined)

>  <measured>
27

$$$$
>  <compound>
CCCN1CCC=C(c2cccc(Nc3nccc(Nc4cc(OC)ccc4C)n3)c2)C1

>  <measured>
15

$$$$
>  <compound>
COc1ccc(C2CC(=O)C3=C(C2)NC(C)=C(C(=O)OC2CCCC2)C3c2ccc(O)cc2)cc1OC (centres undefined)

>  <measured>
-9

$$$$
>  <compound>
Cc1cc2c(cc1C(F)(F)F)N(C(=O)Nc1cc(OCCN(C(C)C)C(C)C)cc(C(F)(F)F)c1)CC2

>  <measured>
42

$$$$

Ask: Which inhibition value belongs to CCc1c(C)nc(-n2nc(C)cc2NC(=O)C(CC)c2ccccc2)[nH]c1=O (centres undefined) ?
Result: 41

Ask: Which inhibition value belongs to `O=C(Nc1ccc(-c2nc3ccccc3[nH]2)cc1)c1cnc(Cl)c(Cl)c1` ?
Result: 11

Ask: Which inhibition value belongs to `Cn1cncc1CCCN(Cc1ccc(-c2ccc(C(F)(F)F)cc2)cc1)C(=O)Cn1c(CCc2cccc(F)c2F)cc(=O)c2cccnc21` ?
Result: 17

Ask: Which inhibition value belongs to `CC(=O)OCCN1C(=O)c2ccc3c4c(ccc(c24)C1=O)C(=O)N(CCOC(C)=O)C3=O` ?
Result: 2

src = PubChem BioAssay
